- assayed-target: Dopamine beta hydroxylase (Homo sapiens)
- Construct: 125 μl of plasma; tissue Instituto Português do Sangue Transplantação; host or cells: human plasma from healthy donors
- Sequence (P09172 40-617 limits assumed): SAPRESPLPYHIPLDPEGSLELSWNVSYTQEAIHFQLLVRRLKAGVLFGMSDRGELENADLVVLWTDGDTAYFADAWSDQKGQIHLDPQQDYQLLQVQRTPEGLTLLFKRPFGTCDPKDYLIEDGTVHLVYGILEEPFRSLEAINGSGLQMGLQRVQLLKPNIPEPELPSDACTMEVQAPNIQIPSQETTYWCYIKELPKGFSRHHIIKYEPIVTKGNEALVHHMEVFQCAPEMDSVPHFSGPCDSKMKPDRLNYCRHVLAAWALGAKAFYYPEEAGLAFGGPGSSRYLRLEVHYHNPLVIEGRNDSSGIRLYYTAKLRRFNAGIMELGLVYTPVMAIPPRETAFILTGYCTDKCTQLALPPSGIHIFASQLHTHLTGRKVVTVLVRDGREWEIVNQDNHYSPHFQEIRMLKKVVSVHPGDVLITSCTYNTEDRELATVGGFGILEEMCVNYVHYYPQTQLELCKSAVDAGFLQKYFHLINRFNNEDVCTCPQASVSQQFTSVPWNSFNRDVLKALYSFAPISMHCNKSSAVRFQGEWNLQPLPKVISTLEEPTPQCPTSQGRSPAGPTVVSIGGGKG
- test-description: Dopamine beta hydroxylase activity in human plasma
- Format: biochemical
- condition-summary: inhibitor 0.1 μM
observed-property: Plasma (0.1 μM), activity in % of control

Below are worked cases with known answers.
compound	experimental-value
CN(C)CCCNC(=O)Cc1[nH]c(=S)n2c1C[C@H](c1c(F)c(F)cc(F)c1F)C2.Cl [Example 71]	57.0 % of control
Cn1c(CC(=O)N[C@H]2CC[C@H](O)CC2)c2n(c1=S)C[C@@]1(c3cc(Cl)ccc3F)C[C@@H]21 [Example 355]	14.0 % of control
CS(=O)(=O)CCNCCc1[nH]c(=S)n2c1C[C@H](c1c(F)ccc(Br)c1F)C2 [Example 182]	71.0 % of control

Kindly give each listed record's Plasma (0.1 μM), activity in % of control.
1. CC(C)(C)OC(=O)N1CCC[C@@H]1CNC(=O)Cc1[nH]c(=S)n2c1C[C@@H](c1c(F)ccc(Br)c1F)C2 [Example 122]
2. Cn1c(CC(=O)NC2CCOCC2)c2n(c1=S)C[C@@]1(c3cc(Br)ccc3F)C[C@@H]21 [Example 314]
3. O=C(Cc1[nH]c(=S)n2c1C[C@@H](c1c(F)ccc(Cl)c1F)C2)N[C@@H]1CCOC1 [Example 362]
4. Cl.Cn1cc(CNCCc2c3n(c(=S)n2C)C[C@@]2(c4cc(Cl)ccc4F)C[C@@H]32)cn1 [Example 346]
5. Cn1c(CC(=O)N2CC[C@H](C#N)C2)c2n(c1=S)C[C@H](c1c(F)ccc(Br)c1F)C2 [Example 450]
6. O=C(Cc1[nH]c(=S)n2c1C[C@@H](c1c(F)ccc(Br)c1F)C2)NCCO [Example 93]

["13.0 % of control", "34.8 % of control", "11.8 % of control", "74.9 % of control", "2.3 % of control", "32.1 % of control"]

// for each compound below, give its Plasma (0.1 μM), activity in % of control
1. Cn1c(CC(=O)N2CCOCC2)c2n(c1=S)C[C@H](c1c(F)ccc(Cl)c1F)C2 [Example 329]
2. CC(C)NCCc1[nH]c(=S)n2c1[C@@H]1C[C@]1(c1cc(Cl)ccc1F)C2.Cl [Example 175]

["16.1 % of control", "61.7 % of control"]

###

- assayed-target: Dopamine beta hydroxylase (Homo sapiens)
- Construct: 125 μl of plasma; tissue Instituto Português do Sangue Transplantação; host or cells: human plasma from healthy donors
- test-description: Dopamine beta hydroxylase activity in human plasma
- Type: biochemical
- condition-summary: inhibitor 0.1 μM
For each entry below, report its Plasma (0.1 μM), activity in % of control value.

Consider the following illustrative entries.
Cn1c(CC(=O)NCC2CCOCC2)c2n(c1=S)C[C@@H](c1c(F)c(F)cc(F)c1F)C2 24.1 % of control
F.Fc1ccc(Br)cc1[C@]12C[C@H]1c1c(CCNc3ccccn3)[nH]c(=S)n1C2 12.1 % of control

Moving on to the next molecule.
Check the records and state Plasma (0.1 μM), activity in % of control for `Cn1c(CC(=O)N2CCOCC2)c2n(c1=S)C[C@@]1(c3c(F)ccc(Cl)c3F)C[C@@H]21`
5.8 % of control
